Documented melting point across a set of compounds

CNc1c(Nc2ccc(C3CN(C)Cc4c(Cl)cc(Cl)cc43)cc2)c(=O)c1=O (stereo not shown) [Example 53] | 328 to 334 °C
CN1Cc2c(Cl)cc(Cl)cc2C(c2ccc(Nc3c(NCc4cccnc4)c(=O)c3=O)cc2)C1 (stereo not shown) [Example 59] | 288 to 290 °C
CN1Cc2c(Cl)cc(Cl)cc2[C@H](c2ccccc2Nc2c(N3CCCC3)c(=O)c2=O)C1 [Example 41] | 220 to 224 °C

get_value(item= CN1Cc2c(Cl)cc(Cl)cc2[C@H](c2cccc(Nc3c(N4CCCC4)c(=O)c3=O)c2)C1 [Example 34] , readout=melting point) returns 138 to 143 °C
